Values were extracted from paper PMC7435711.

- Test description: in vitro
- Condition label: human
Assay readout: IC50 at 72 h

Exercise: Value lookup for IC50 at 72 h; key = C=C(C)[C@@H]1CC[C@]2(C(=O)OCc3ccccc3)CC[C@]3(C)[C@H](CC[C@@H]4[C@@]5(C)CC[C@H](O)C(C)(C)[C@@H]5CC[C@]43C)[C@@H]12
Solution: > 50 µM

Exercise: What do you get for C#CCO[C@H]1CC[C@]2(C)[C@H]3CC[C@@H]4[C@H]5[C@H](C(=C)C)CC[C@]5(C(=O)OCc5ccccc5)CC[C@@]4(C)[C@]3(C)CC[C@H]2C1(C)C ?
Solution: > 50 µM

Exercise: What do you get for C=C(C)[C@@H]1CC[C@]2(C(=O)OCc3ccccc3)CC[C@]3(C)[C@H](CC[C@@H]4[C@@]5(C)CC[C@H](OCc6cn(CCCCC(=O)O)nn6)C(C)(C)[C@@H]5CC[C@]43C)[C@@H]12 ?
Solution: > 50 µM

* * *

- Test description: Cytotoxicity screening test, BJ reference cells
- Condition label: human, BJ normal foreskin fibroblasts
Assay readout: IC50 at 72 h

Exercise: Value lookup for IC50 at 72 h; key = C=C(C)[C@@H]1CC[C@]2(C(=O)O)CC[C@]3(C)[C@H](CC[C@@H]4[C@@]5(C)CC[C@H](O)C(C)(C)[C@@H]5CC[C@]43C)[C@@H]12 [Compound 2, 3β-hydroxylup-20(29)-en-28-oic acid, reference compound]
Solution: > 50 µM

Exercise: What do you get for COc1cccc2c1C(=O)c1c(O)c3c(c(O)c1C2=O)C[C@@](O)(C(=O)CO)C[C@@H]3O[C@H]1C[C@H](N)[C@H](O)[C@H](C)O1 [Doxorubicin, reference compound] ?
Solution: 0.278 µM

Exercise: What do you get for C[C@@H]1CC[C@@]2(OC1)O[C@H]1C[C@H]3[C@@H]4CC=C5C[C@@H](O)CC[C@]5(C)[C@H]4CC[C@]3(C)[C@H]1[C@@H]2C [Compound 1, (3β,25R)-spirost-5-en-3-ol, reference compound] ?
Solution: > 50 µM

* * *

- Test system: CEM, MCF7, HeLa, HCT 116 cancer cell lines and BJ fibroblasts
Assay readout: Cytotoxicity (in words)

{"columns": ["Compound", "Assay result"],
 "data": [
  ["C#CCO[C@H]1CC[C@]2(C)[C@H]3CC[C@@H]4[C@H]5[C@H](C(=C)C)CC[C@]5(C(=O)OCc5ccccc5)CC[C@@]4(C)[C@]3(C)CC[C@H]2C1(C)C [Compound 4]", "no cytotoxicity"],
  ["C=C(C)[C@@H]1CC[C@]2(C(=O)OCc3ccccc3)CC[C@]3(C)[C@H](CC[C@@H]4[C@@]5(C)CC[C@H](O)C(C)(C)[C@@H]5CC[C@]43C)[C@@H]12 [Compound 3]", "no cytotoxicity"]
]}

* * *

- System: human colon carcinoma (HCT 116) cells
- Test description: Cytotoxicity screening test, HCT 116
- Condition label: HCT-116, 72 h, read-out: Cytotoxicity IC50, HCT 116
Assay readout: IC50

Exercise: Value lookup for IC50; key = C[C@@H]1CC[C@@]2(OC1)O[C@H]1C[C@H]3[C@@H]4CC=C5C[C@@H](O)CC[C@]5(C)[C@H]4CC[C@]3(C)[C@H]1[C@@H]2C [Compound 1, (3β,25R)-spirost-5-en-3-ol, reference compound]
Solution: > 50 µM

Exercise: What do you get for C=C(C)[C@@H]1CC[C@]2(C(=O)O)CC[C@]3(C)[C@H](CC[C@@H]4[C@@]5(C)CC[C@H](OCc6cn(CCCCC(=O)O)nn6)C(C)(C)[C@@H]5CC[C@]43C)[C@@H]12 ?
Solution: > 50 µM

Exercise: What do you get for C=C(C)[C@@H]1CC[C@]2(C(=O)OCc3ccccc3)CC[C@]3(C)[C@H](CC[C@@H]4[C@@]5(C)CC[C@H](OCc6cn(CCCCC(=O)O)nn6)C(C)(C)[C@@H]5CC[C@]43C)[C@@H]12 ?
Solution: 19.4 µM

Exercise: What do you get for C=C(C)[C@@H]1CC[C@]2(C(=O)O)CC[C@]3(C)[C@H](CC[C@@H]4[C@@]5(C)CC[C@H](O)C(C)(C)[C@@H]5CC[C@]43C)[C@@H]12 [Compound 2, 3β-hydroxylup-20(29)-en-28-oic acid, reference compound] ?
Solution: > 50 µM

Exercise: What do you get for C#CCO[C@H]1CC[C@]2(C)[C@H]3CC[C@@H]4[C@H]5[C@H](C(=C)C)CC[C@]5(C(=O)OCc5ccccc5)CC[C@@]4(C)[C@]3(C)CC[C@H]2C1(C)C ?
Solution: > 50 µM

Exercise: What do you get for C=C(C)[C@@H]1CC[C@]2(C(=O)OCc3ccccc3)CC[C@]3(C)[C@H](CC[C@@H]4[C@@]5(C)CC[C@H](OCc6cn(CCCCC(=O)O[C@H]7CC[C@@]8(C)C(=CC[C@H]9[C@@H]%10C[C@@H]%11O[C@]%12(CC[C@@H](C)CO%12)[C@@H](C)[C@@H]%11[C@@]%10(C)CC[C@@H]98)C7)nn6)C(C)(C)[C@@H]5CC[C@]43C)[C@@H]12 ?
Solution: > 50 µM

Exercise: What do you get for C=C(C)[C@@H]1CC[C@]2(C(=O)O)CC[C@]3(C)[C@H](CC[C@@H]4[C@@]5(C)CC[C@H](OCc6cn(CCCCC(=O)O[C@H]7CC[C@@]8(C)C(=CC[C@H]9[C@@H]%10C[C@@H]%11O[C@]%12(CC[C@@H](C)CO%12)[C@@H](C)[C@@H]%11[C@@]%10(C)CC[C@@H]98)C7)nn6)C(C)(C)[C@@H]5CC[C@]43C)[C@@H]12 ?
Solution: > 50 µM

Exercise: What do you get for C=C(C)[C@@H]1CC[C@]2(C(=O)OCc3ccccc3)CC[C@]3(C)[C@H](CC[C@@H]4[C@@]5(C)CC[C@H](O)C(C)(C)[C@@H]5CC[C@]43C)[C@@H]12 ?
Solution: > 50 µM

Exercise: What do you get for COc1cccc2c1C(=O)c1c(O)c3c(c(O)c1C2=O)C[C@@](O)(C(=O)CO)C[C@@H]3O[C@H]1C[C@H](N)[C@H](O)[C@H](C)O1 [Doxorubicin, reference compound] ?
Solution: 0.524 µM

* * *

Hi there, I'd appreciate the recorded IC50 at 72 h for every entry that follows.
- Test description: in vitro
- Condition label: human

Exercise: Value lookup for IC50 at 72 h; key = C=C(C)[C@@H]1CC[C@]2(C(=O)OCc3ccccc3)CC[C@]3(C)[C@H](CC[C@@H]4[C@@]5(C)CC[C@H](OCc6cn(CCCCC(=O)O[C@H]7CC[C@@]8(C)C(=CC[C@H]9[C@@H]%10C[C@@H]%11O[C@]%12(CC[C@@H](C)CO%12)[C@@H](C)[C@@H]%11[C@@]%10(C)CC[C@@H]98)C7)nn6)C(C)(C)[C@@H]5CC[C@]43C)[C@@H]12 [Compound 7]
Solution: 46.2 µM

Exercise: What do you get for C=C(C)[C@@H]1CC[C@]2(C(=O)O)CC[C@]3(C)[C@H](CC[C@@H]4[C@@]5(C)CC[C@H](OCc6cn(CCCCC(=O)O[C@H]7CC[C@@]8(C)C(=CC[C@H]9[C@@H]%10C[C@@H]%11O[C@]%12(CC[C@@H](C)CO%12)[C@@H](C)[C@@H]%11[C@@]%10(C)CC[C@@H]98)C7)nn6)C(C)(C)[C@@H]5CC[C@]43C)[C@@H]12 [Compound 8] ?
Solution: > 50 µM

Exercise: What do you get for C=C(C)[C@@H]1CC[C@]2(C(=O)O)CC[C@]3(C)[C@H](CC[C@@H]4[C@@]5(C)CC[C@H](OCc6cn(CCCCC(=O)O)nn6)C(C)(C)[C@@H]5CC[C@]43C)[C@@H]12 [Compound 6] ?
Solution: > 50 µM
